# Test system: ACHN renal
# PROTOCOL_DESCRIPTION: NCI-60 one-dose screen, 48 h
# CONDITIONS: 10 µM unless noted
Compounds without any hit were thinned out: in the full panel of roughly 83,000, 20% have a hit. Activity calls are given as the source filed them. How the source made its calls: active means growth percent below 10; inactive means the rest.
Outcome (select one): yes (1) (active), no (0) (inactive)

What was the test verdict on CC(C)(C)[Si](C)(C)OC1[C@@H](COC(=O)NC(=O)CCl)O[C@@H](n2cnc3c(N)ncnc32)[C@H]1O[Si](C)(C)C(C)(C)C (some centres undefined) ?
no (0)

***
What was the test verdict on `CCCOC(=O)c1ccc2c(c1)[N+](=O)C(C(=O)c1ccccc1)=C(C(F)(F)F)[N+]2=O` ?
yes (1)

What was the test verdict on `CN(C)c1ccc(/C=C(\C#N)c2cc3ccccc3n2C)cc1` ?
no (0)

What was the test verdict on `Cn1c2c(cc(S(=O)(=O)c3ccccc3)c1=O)CCc1c-2cnn1-c1cccc(Cl)c1` ?
yes (1)

====

# Tested on: U251 CNS
# PROTOCOL_DESCRIPTION: NCI-60 one-dose screen, 48 h
# CONDITIONS: 10 µM unless noted
About 83,000 compounds went through this panel and 20% of them were active in at least one assay; those are over-represented in the sample as a whole. The source made the active and inactive calls. The calls were made as follows: active = growth percent below 10; inactive = the rest.
Outcome (select one): active, inactive

What was the test verdict on `COc1cc(CNCCCN2C(=O)c3ccc4c5c(ccc(c35)C2=O)C(=O)N(CCCNCc2cc(OC)c(OC)c(OC)c2)C4=O)cc(OC)c1OC` ?
active

What was the test verdict on CC1SC(c2cccc(Oc3ccccc3)c2)N(CCc2cccs2)C1=O (stereo not given) ?
active

What was the test verdict on `C=CC(=O)N1CC2(CCC(n3nc(-c4ccc(Oc5ccccc5)cc4)c4c(N)ncnc43)CC2)C1` ?
active

***
What was the test verdict on `Nc1nc2c(s1)CCc1c-2c(Br)n(Cc2ccccc2)c1Br` ?
inactive

What was the test verdict on `Cc1nc2cc(Nc3nc(Nc4ccc(F)cc4)nc(N4CCCC4)n3)ccc2n1Cc1ccccc1` ?
active

What was the test verdict on `COC(=O)c1c2c(c(C)[n+]([O-])c1C)C(=O)C=C(NCc1ccc(F)c(Cl)c1)C2=O` ?
active

What was the test verdict on `O=c1[nH]c(=S)[nH]c(=O)n1Cc1cccc2ccccc12` ?
inactive

What was the test verdict on `Cc1ccc(N(CSc2ccc(Cl)cc2)CSc2ccc(Cl)cc2)cc1` ?
inactive

What was the test verdict on Cc1ccc(S(=O)(=O)N2CCc3ccc(O)c4c3C2CCc2ccccc2-4)cc1 (stereo not given) ?
inactive

What was the test verdict on `CN1CCN(C)c2cncc(Br)c2C1=O` ?
inactive

What was the test verdict on `COc1ccc(-c2c(-c3cc4c(c(OC)c3OC)OCO4)noc2N)cc1` ?
inactive

What was the test verdict on `COc1ccc(-c2nc(Nc3ccc(F)cc3)nc(Nc3ccc4c(c3)nc(C)n4Cc3ccccc3)n2)cc1` ?
inactive

What was the test verdict on COc1c(O)c2c3c(c1OC)-c1ccccc1CC3N(S(=O)(=O)c1ccc(C)cc1)CC2 (stereo not given) ?
inactive

What was the test verdict on COc1cc(/C=C/C(=O)C2=C(/C=C/c3ccc(O)c(OC)c3)NC(=O)NC2c2ccc(O)c(OC)c2)ccc1O (stereo not given) ?
inactive

What was the test verdict on `Cc1cc[n+](CCc2ccccc2)cc1` ?
inactive

What was the test verdict on `CCCCC/C=C\C/C=C/CCCCCCCCNC(=O)Nc1ccc([N+](=O)[O-])cc1` ?
inactive

====

As shown below, each of these compounds has a reported growth value.
# Test system: TK-10 renal
# PROTOCOL_DESCRIPTION: NCI-60 one-dose screen, 48 h (100 = growth as untreated, 0 = no growth, -100 = all killed)
# CONDITIONS: 10 µM unless noted
This is part of a sample that, as a whole, favours compounds with a hit. Of some 83,000 tested, about 20% had one in any assay.
Respond with the bare value in %.

The compound listed as O=C1CCC(N2Cc3c(C#CCCCNC(=O)c4cc5c(o4)C(=O)c4ccccc4C5=O)cccc3C2=O)C(=O)N1 (stereo unspecified) shows growth equal to 101

# ---- query compound ----
The compound listed as `Cc1nc2cc(Nc3nc(Nc4ccc(F)cc4)nc(N4CCN(C)CC4)n3)ccc2n1Cc1ccccc1` shows growth equal to -12.1

====

# System: HCT-15 colon
# PROTOCOL_DESCRIPTION: NCI-60 one-dose screen, 48 h (100 = growth as untreated, 0 = no growth, -100 = all killed)
# CONDITIONS: 10 µM unless noted
Compounds without any hit were thinned out: in the full panel of roughly 83,000, 20% have a hit. The source made the active and inactive calls. The calls were made as follows: active = growth percent below 10; inactive = the rest.
REPORTED_PROPERTY: growth

Reference set (3 entries):
The compound listed as O=C(CC(O)c1ccccc1)Nc1ccccn1 (stereo not given) shows growth equal to 101% (inactive)

The compound listed as COC1(OC)C2(Cl)C=C(c3ccccc3)C1(Cl)C(Cl)=C2Cl (stereo not given) shows growth equal to 119% (inactive)

The compound listed as `CN(C)C(=S)SCN1C(=O)c2ccc([N+](=O)[O-])cc2S1(=O)=O` shows growth equal to 95.2% (inactive)

# ---- query compound ----
The compound listed as `CN1CCN(c2nc(-c3ccncc3)nc3sc4c(c23)CCCCCC4)CC1` shows growth equal to 76.5% (inactive)

====

# Test system: RXF 393 renal
# PROTOCOL_DESCRIPTION: NCI-60 one-dose screen, 48 h
# CONDITIONS: 10 µM unless noted
# Procedure: Cells are grown in 96 well plates and exposed to the test compound for 48 hours. Compounds are tested at a single concentration, which is 10^-5 M for most compounds. The reported endpoint is percent growth (GI% or GIPRCNT), where numbers from 0 - 100% represent growth inhibition, and numbers from -100% - 0 represent cell death. For example, a value of 40 represents 60% growth inhibition. A value of 0 means no net growth occurred over the course of the experiment. […]
This is part of a sample that, as a whole, favours compounds with a hit. Of some 83,000 tested, about 20% had one in any assay. Activity calls are given as the source filed them. Rule for the calls: active = growth percent below 10; inactive = the rest.
Outcome (select one): y = active, n = inactive

Completed entries (count: 3):
What was the test verdict on `COc1ccc(Sc2ccc3[nH]c(=O)nc(N)c3c2)cc1` ?
n

What was the test verdict on `COc1ccc(OC2=CC(=O)c3ccc(C)nc3C2=O)cc1` ?
n

What was the test verdict on `N#Cc1c(O)c2c(c(O)c1C#N)C(=O)c1ccccc1C2=O` ?
n

***
What was the test verdict on `Cc1ccccc1-n1nnc(C(=O)Nc2ccc(-c3ccccc3)cn2)c1C` ?
n

What was the test verdict on `Cc1cc[n+](CCc2ccccc2)cc1` ?
n

What was the test verdict on COC(=O)/C=C1/CCC2C3CCC4=CC(=O)C(Br)CC4(C)C3C(=O)CC12C (configuration not stated) ?
n

What was the test verdict on `Cc1c(C(=O)Nc2nc(-c3ccccc3)cs2)nnn1-c1ccccc1Br` ?
n

What was the test verdict on `CCCCC(=O)N/N=C/c1cc(I)cc(I)c1O` ?
n

What was the test verdict on `COc1c(Cl)ccc2c(-c3nc4cc(Cl)c(F)cc4s3)cc(=O)oc12` ?
n

What was the test verdict on `COc1cccc(Nc2nc(NCCO)c3ccccc3n2)c1` ?
n

What was the test verdict on `COc1cc(-c2ccc3cc(OC)c(OC)c(OC)c3c2)cc(OC)c1OC` ?
n

====

# System: UACC-257 melanoma
# PROTOCOL_DESCRIPTION: NCI-60 one-dose screen, 48 h (100 = growth as untreated, 0 = no growth, -100 = all killed)
# CONDITIONS: 10 µM unless noted
This is part of a sample that, as a whole, favours compounds with a hit. Of some 83,000 tested, about 20% had one in any assay.
REPORTED_PROPERTY: growth (%)
Respond with the bare value in %.

The molecule listed as CC(C)NCC(O)COc1ccc(CCOCC2CC2)cc1 (stereo not given) shows growth equal to 108

The molecule listed as `CCN(CC)c1ccc2c(c1)OS(=O)(=O)N=C2` shows growth equal to 103

The molecule listed as O=C(c1cnn2c1NC(c1ccc(F)cc1)C2)N1CCCCC1 (stereo not given) shows growth equal to 96.3

The molecule listed as `Cc1nc(NC(=O)COc2cccc(/C=C3\COc4ccccc4C3=O)c2)sc1C` shows growth equal to -49

The molecule listed as `COc1ccc(-c2nn(-c3ccc(NC(=O)c4ccc(Cl)c(Cl)c4)cc3)cc2-c2ccncc2)cc1Cl` shows growth equal to 93.3

The molecule listed as `COc1ccc(/C=N\N2CCOCC2)cc1OC1CCCC1` shows growth equal to 102

The molecule listed as `c1ccc2c(c1)oc1cc3c(cc12)nnc1cccn13` shows growth equal to 95.7

The molecule listed as `CC(=O)OC[C@H](O)[C@@]1(O)CC[C@H]2[C@@H]3CCC4=CC(=O)CC[C@]4(C)[C@H]3[C@@H](O)C[C@@]21C` shows growth equal to 110

***
The molecule listed as `COC(=O)c1c2c(c(C)[n+]([O-])c1C)C(=O)C=C(NCc1ccc(Cl)cc1)C2=O` shows growth equal to -84.7

The molecule listed as CCCCOC(=O)C1OC(Oc2ccc3c(C)cc(=O)oc3c2)[C@@H](OC(C)=O)C(OC(C)=O)C1OC(C)=O (stereo not given in full) shows growth equal to 93.9
